Origin of measurements: patent US11078192B2

# target-under-test: PD-1/PD-L1 (Homo sapiens (Human))
# assay-summary: Homogeneous Time-Resolved Fluorescence (HTRF) binding assay
# test-context: CisBio kit #64CUS000C-1, read-out: IC50 of compounds binding to PD-1/PD-L1
pIC50: −log10 of the molar value.
quantity-name: pIC50

a. COc1cc(/C=C/c2cncc(-c3ccccc3)c2C)cc(OC)c1CN[C@@H](CO)C(=O)O
b. Cc1c(/C=C/c2ccc(CN3CCCC(O)C3CO)cc2Cl)cccc1-c1ccccc1 (stereo not shown)
c. COc1cc(/C=C/c2cccc(-c3ccccc3)c2C)cc(OC)c1CN[C@@](C)(CO)C(=O)O
d. COc1cc(C#Cc2cccc(-c3ccccc3)c2C)cc(OC)c1CN1CCC[C@H]1CO
Sort the items above by pIC50, starting with the smallest value. Answer format: the labels, in the requested order.
a, d, b, c
(a: 5.41, d: 5.87, b: 6.16, c: 7.31)

====

# target-under-test: PD-1/PD-L1 (Homo sapiens (Human), UniProt Q9NZQ7)
# Sequence (Q9NZQ7 19-238): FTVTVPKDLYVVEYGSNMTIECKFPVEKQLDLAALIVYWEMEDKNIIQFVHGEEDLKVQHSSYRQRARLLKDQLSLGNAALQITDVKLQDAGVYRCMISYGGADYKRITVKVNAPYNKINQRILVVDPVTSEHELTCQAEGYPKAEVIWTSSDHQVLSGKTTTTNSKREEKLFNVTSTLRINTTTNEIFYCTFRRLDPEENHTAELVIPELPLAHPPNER
# assay-summary: Homogeneous Time-Resolved Fluorescence (HTRF) binding assay
# test-context: CisBio kit #64CUS000C-1, read-out: IC50 of compounds binding to PD-1/PD-L1
# Text: Homogeneous Time-Resolved Fluorescence (HTRF) binding assay was used to determine the binding activity of the compound of the present invention to PD-1/PD-L1. The purchased kit (CisBio, #64CUS000C-1) contained reagents required for assays such as PD-1, PD-L1, anti-tag1-Eu, Anti-tag2-XL665, Dilute Buffer, and Detection Buffer. 1. The compound was formulated to 10 concentrations with a 3-fold gradient with 100% DMSO. 2. […] 7. HTRF values were read with Envision.
pIC50: −log10 of the molar value.
quantity-name: pIC50

These recorded examples may help you get a feel for the data.
- compound: "COc1nc(/C=C/c2cccc(-c3ccccc3)c2C)ccc1CNCCNC(C)=O"
  quantity-name: "pIC50"
  number: 6.77
- compound: "Cc1cc(CN2CCCC(O)C2C(=O)O)ccc1C#Cc1cccc(-c2ccccc2)c1C (centres unmarked)"
  quantity-name: "pIC50"
  number: 5.67
- compound: "COc1nc(/C=C/c2cccc(-c3ccccc3)c2C)ccc1CN[C@H](CO)C(=O)O"
  quantity-name: "pIC50"
  number: 5.29
- compound: "Cc1c(/C=C/c2ccc(CN3CCC[C@H]3CO)cc2Cl)cccc1-c1ccccc1"
  quantity-name: "pIC50"
  number: 6.34
- compound: "Cc1cc(CN[C@H](C)C(=O)O)ccc1/C=C/c1cccc(-c2ccccc2)c1C"
  quantity-name: "pIC50"
  number: 6.62
- compound: "Cc1c(/C=C/c2ccc(CNC(CO)CO)cc2Cl)cccc1-c1ccccc1"
  quantity-name: "pIC50"
  number: 6.60
- compound: "COc1cc(/C=C/c2cccc(-c3ccccc3)c2C)cc(OC)c1CNC(CO)CO"
  quantity-name: "pIC50"
  number: 7.22
- compound: "COc1cc(/C=C/c2cccc(-c3ccccc3)c2C)cc(OC)c1CNCCO"
  quantity-name: "pIC50"
  number: 6.55

1. COC(=O)c1cccc(-c2cccc(/C=C/c3cc(OC)c(CNC(C)(CO)C(=O)O)c(OC)c3)c2C)c1 (centres unmarked)
2. COc1cc(/C=C/c2cccc(-c3ccccc3)c2C)cc(OC)c1CNCCNC(C)=O
Kindly compare 1 with 2 and tell me which has the lower pIC50 figure. Indicate your choice by writing its label.
1
(1: 6.09, 2: 6.82)
